This collection of values is drawn from ChEMBL document CHEMBL3632558.

# System: Escherichia coli
# Experiment: Antibacterial activity against Escherichia coli ATCC 25922 after 18 to 24 hrs
# Type: functional
Provide the recorded MIC for the entries that follow.

Hello, I would appreciate it if you could give MIC for each entry below.
1. CC1(CN)CN(c2nc3c(cc2F)c(=O)c(C(=O)O)cn3[C@@H]2C[C@@H]2F)C/C1=N\OCc1ccccc1 (stereo partly specified)
2. COc1ccc(CO/N=C2\CN(c3nc4c(cc3F)c(=O)c(C(=O)O)cn4[C@@H]3C[C@@H]3F)CC2CN)cc1 (stereo partly specified)

1. 0.125 µg/mL
2. < 0.008 µg/mL

Fill in MIC for each of the 3 molecules listed.
1. CO/N=C1\CN(c2nc3c(cc2F)c(=O)c(C(=O)O)cn3[C@@H]2C[C@@H]2F)CC1(C)N (stereo partly specified)
2. NCC1CN(c2nc3c(cc2F)c(=O)c(C(=O)O)cn3[C@@H]2C[C@@H]2F)C/C1=N\OCc1ccc(Cl)cc1 (stereo partly specified)
3. O=C(O)c1cn(C2CC2)c2cc(N3CCNCC3)c(F)cc2c1=O

1. 0.5 µg/mL
2. 0.125 µg/mL
3. < 0.008 µg/mL

I'm hoping you can list MIC for every molecule here, please.
1. NCC1CN(c2nc3c(cc2F)c(=O)c(C(=O)O)cn3[C@@H]2C[C@@H]2F)C/C1=N\OCc1ccc2c(c1)OCO2 (stereo partly specified)
2. NCC1CN(c2nc3c(cc2F)c(=O)c(C(=O)O)cn3[C@@H]2C[C@@H]2F)C/C1=N\OCc1ccc(Br)cc1 (stereo partly specified)
3. CO/N=C1\CN(c2nc3c(cc2F)c(=O)c(C(=O)O)cn3[C@@H]2C[C@@H]2F)CC1(C)CN (stereo partly specified)
4. COc1cccc(CO/N=C2\CN(c3nc4c(cc3F)c(=O)c(C(=O)O)cn4[C@@H]3C[C@@H]3F)CC2CN)c1OC (stereo partly specified)
5. CCO/N=C1\CN(c2nc3c(cc2F)c(=O)c(C(=O)O)cn3[C@@H]2C[C@@H]2F)CC1(C)CN (stereo partly specified)
6. NCC1CN(c2nc3c(cc2F)c(=O)c(C(=O)O)cn3[C@@H]2C[C@@H]2F)C/C1=N\OCc1ccc([N+](=O)[O-])cc1 (stereo partly specified)

< 0.008 µg/mL
0.125 µg/mL
0.03 µg/mL
0.03 µg/mL
< 0.008 µg/mL
0.25 µg/mL

----------
# Test system: Pseudomonas aeruginosa
# Experiment: Antibacterial activity against Pseudomonas aeruginosa 14-19 after 18 to 24 hrs
# Format: functional
Endpoint name: MIC (µg/mL)
Answers are plain numbers, in µg/mL.

Below, each entry is followed by its recorded MIC result.
Which MIC value is on record for CCO/N=C1\CN(c2nc3c(cc2F)c(=O)c(C(=O)O)cn3[C@@H]2C[C@@H]2F)CC1(C)CN (stereo partly specified) ?
8

Consider the compound shown here: CO/N=C1\CN(c2nc3c(cc2F)c(=O)c(C(=O)O)cn3[C@@H]2C[C@@H]2F)CC1(C)N (stereo partly specified) What is its recorded MIC?
32

I am curious: what MIC value has been reported for COc1ccc(CO/N=C2\CN(c3nc4c(cc3F)c(=O)c(C(=O)O)cn4[C@@H]3C[C@@H]3F)CC2CN)cc1 (stereo partly specified) ?
16

Query (compound): NCC1CN(c2nc3c(cc2F)c(=O)c(C(=O)O)cn3[C@@H]2C[C@@H]2F)C/C1=N\OCc1ccc(F)cc1 (stereo partly specified) ; field requested: MIC
16

Request the reported MIC associated with Cc1ccc(CO/N=C2\CN(c3nc4c(cc3F)c(=O)c(C(=O)O)cn4[C@@H]3C[C@@H]3F)CC2CN)cc1 (stereo partly specified)
8

Okay, here is my list. What is MIC for each of these?
1. NCC1CN(c2nc3c(cc2F)c(=O)c(C(=O)O)cn3[C@@H]2C[C@@H]2F)C/C1=N\OCc1ccc(Cl)cc1 (stereo partly specified)
2. CO/N=C1\CN(c2nc3c(cc2F)c(=O)c(C(=O)O)cn3[C@@H]2C[C@@H]2F)CC1N (stereo partly specified)
3. CO/N=C1\CN(c2nc3c(cc2F)c(=O)c(C(=O)O)cn3[C@@H]2C[C@@H]2F)CC1(C)CN (stereo partly specified)
4. CC1(N)CN(c2nc3c(cc2F)c(=O)c(C(=O)O)cn3[C@@H]2C[C@@H]2F)C/C1=N\OCc1ccccc1 (stereo partly specified)
5. NC1CN(c2nc3c(cc2F)c(=O)c(C(=O)O)cn3[C@@H]2C[C@@H]2F)C/C1=N\OCc1ccccc1 (stereo partly specified)
6. CCO/N=C1\CN(c2nc3c(cc2F)c(=O)c(C(=O)O)cn3[C@@H]2C[C@@H]2F)CC1(C)N (stereo partly specified)
7. COc1cc(CO/N=C2\CN(c3nc4c(cc3F)c(=O)c(C(=O)O)cn4[C@@H]3C[C@@H]3F)CC2CN)cc(OC)c1 (stereo partly specified)

8
8
8
64
32
64
16

----------
Could you please report measured MIC for the items listed next?
# System: Klebsiella pneumoniae
# Experiment: Antibacterial activity against ESBL-positive Klebsiella pneumoniae 14-18 after 18 to 24 hrs
# Type: functional
Answer by giving the amount and then stating its unit.

Okay, here is my list. What is MIC for each of these?
1. NCC1CN(c2nc3c(cc2F)c(=O)c(C(=O)O)cn3[C@@H]2C[C@@H]2F)C/C1=N\OCc1ccc(Cl)cc1 (some centres undefined)
2. O=C(O)c1cn(C2CC2)c2cc(N3CCNCC3)c(F)cc2c1=O
3. COc1c(N2C[C@@H]3CCCN[C@@H]3C2)c(F)cc2c(=O)c(C(=O)O)cn(C3CC3)c12

1: 8 µg/mL; 2: 0.25 µg/mL; 3: 1 µg/mL

Given the entry CO/N=C1\CN(c2nc3c(cc2F)c(=O)c(C(=O)O)cn3[C@@H]2C[C@@H]2F)CC1(C)N (some centres undefined) , what MIC was observed with Klebsiella pneumoniae?
32 µg/mL

----------
# Test system: Klebsiella pneumoniae
# Experiment: Antibacterial activity against Klebsiella pneumoniae 14-4 after 18 to 24 hrs
# Type: functional
Endpoint name: MIC (µg/mL)
Answers are plain numbers, in µg/mL.

Reference set, count: 6
Give recorded MIC with Klebsiella pneumoniae for the following compound: `COc1c(N2C[C@@H]3CCCN[C@@H]3C2)c(F)cc2c(=O)c(C(=O)O)cn(C3CC3)c12`
16

Can you look up MIC on Klebsiella pneumoniae for Cc1ccc(CO/N=C2\CN(c3nc4c(cc3F)c(=O)c(C(=O)O)cn4[C@@H]3C[C@@H]3F)CC2CN)cc1 (some centres undefined) ?
128

Lab note: need MIC with Klebsiella pneumoniae for entry CO/N=C1\CN(c2nc3c(cc2F)c(=O)c(C(=O)O)cn3[C@@H]2C[C@@H]2F)CC1(C)CN (some centres undefined) , please look it up.
64

Request body: readout MIC, system Klebsiella pneumoniae, query NCC1CN(c2nc3c(cc2F)c(=O)c(C(=O)O)cn3[C@@H]2C[C@@H]2F)C/C1=N\OCc1ccc(Cl)cc1 (some centres undefined) . Return the value.
128

Give recorded MIC with Klebsiella pneumoniae for the following compound: `O=C(O)c1cn(C2CC2)c2cc(N3CCNCC3)c(F)cc2c1=O`
32

Item: NCC1CN(c2nc3c(cc2F)c(=O)c(C(=O)O)cn3[C@@H]2C[C@@H]2F)C/C1=N\OCc1ccc(F)cc1 (some centres undefined) Test system: Klebsiella pneumoniae Read-out: MIC Value: ?
128

---
Recorded MIC for NCC1CN(c2nc3c(cc2F)c(=O)c(C(=O)O)cn3[C@@H]2C[C@@H]2F)C/C1=N\OCc1ccc([N+](=O)[O-])cc1 (some centres undefined) with Klebsiella pneumoniae, please?
128

----------
# Test system: Enterococcus faecalis
# Experiment: Antibacterial activity against Enterococcus faecalis 14-2 after 18 to 24 hrs
# Assay type: functional
Endpoint name: log10 MIC (log10 of the value in µg/mL)
Log scale reminder: MIC in µg/mL, then log10 taken.

Recorded log10 MIC, per entry:
What value of measured log10 MIC is listed for COc1cc(CO/N=C2\CN(c3nc4c(cc3F)c(=O)c(C(=O)O)cn4[C@@H]3C[C@@H]3F)CC2CN)cc(OC)c1 (some centres undefined) ?
0.00

Param item = CC1(CN)CN(c2nc3c(cc2F)c(=O)c(C(=O)O)cn3[C@@H]2C[C@@H]2F)C/C1=N\OCc1ccccc1 (some centres undefined) ; retrieve measured log10 MIC.
-0.60

Requested read-out: log10 MIC. Entry: NCC1CN(c2nc3c(cc2F)c(=O)c(C(=O)O)cn3[C@@H]2C[C@@H]2F)C/C1=N\OCc1ccc(Cl)cc1 (some centres undefined)
-0.90

Please give the measured log10 MIC for this molecule: CCO/N=C1\CN(c2nc3c(cc2F)c(=O)c(C(=O)O)cn3[C@@H]2C[C@@H]2F)CC1(C)N (some centres undefined)
0.30

Reported log10 MIC, molecule NCC1CN(c2nc3c(cc2F)c(=O)c(C(=O)O)cn3[C@@H]2C[C@@H]2F)C/C1=N\OCc1ccc(Br)cc1 (some centres undefined) : ____
-0.90

***
Would you kindly share the measured log10 MIC for `COc1c(N2C[C@@H]3CCCN[C@@H]3C2)c(F)cc2c(=O)c(C(=O)O)cn(C3CC3)c12` ?
-0.30
